Origin of measurements: patent US9018255B2

- MEASURED_ON: glutathione reductase (Homo sapiens (Human))
- Sequence (P00390 44-522): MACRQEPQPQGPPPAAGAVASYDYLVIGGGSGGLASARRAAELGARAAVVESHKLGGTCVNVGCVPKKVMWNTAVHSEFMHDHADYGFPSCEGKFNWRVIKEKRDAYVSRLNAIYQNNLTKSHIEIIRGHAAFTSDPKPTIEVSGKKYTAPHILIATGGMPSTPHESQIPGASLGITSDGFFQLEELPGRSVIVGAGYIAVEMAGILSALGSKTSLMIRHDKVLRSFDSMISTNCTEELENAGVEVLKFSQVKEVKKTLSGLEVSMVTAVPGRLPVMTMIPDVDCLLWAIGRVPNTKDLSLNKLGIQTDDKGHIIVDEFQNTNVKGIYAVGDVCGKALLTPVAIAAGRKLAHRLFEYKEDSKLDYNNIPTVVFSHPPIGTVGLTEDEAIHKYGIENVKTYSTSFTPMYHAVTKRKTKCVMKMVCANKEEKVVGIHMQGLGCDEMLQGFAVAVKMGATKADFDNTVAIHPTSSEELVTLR
- METHOD: Glutathione reductase activity, DTNB chromogenic assay (Glutathione Reductase Assay Kit)
- Format: biochemical
- SETUP_CONDITIONS: 10 min from reaction onset; read-out: IC50 of glutathione reductase activity inhibition
pIC50: −log10 of the molar value.
VALUE_TYPE: pIC50

{"COMPOUND": "CCC(C)SSc1ncc[nH]1 (stereo not shown) [PX-12, 1-methylpropyl-2-imidazole disulphide, reference compound]", "VALUE_TYPE": "pIC50", "RESULT": 4.54}
{"COMPOUND": "C=C(COC(=O)c1c(C(F)(F)F)cccc1C(F)(F)F)C(=O)NCc1ccccc1", "VALUE_TYPE": "pIC50", "RESULT": "< 4.00"}
{"COMPOUND": "C=C(COC(=O)c1c(C(F)(F)F)cccc1C(F)(F)F)C(=O)NC(CC(C)C)C(=O)NCC(=O)OCC (racemic)", "VALUE_TYPE": "pIC50", "RESULT": "< 4.00"}

Please examine the following record next.
Q) Recall the recorded pIC50 for `C=C(COC(=O)c1c(Cl)cccc1Cl)C(=O)NCc1ccccc1` with glutathione reductase (Homo sapiens (Human)) and state it.
A) < 4.00
